The reader will find reported EC50 values listed item by item below.
studyTarget: JAK2 (Homo sapiens, UniProt O60674)
Construct: All four purified enzymes contain only the catalytic domain; His (N)
Sequence (O60674 849-1124 limits assumed): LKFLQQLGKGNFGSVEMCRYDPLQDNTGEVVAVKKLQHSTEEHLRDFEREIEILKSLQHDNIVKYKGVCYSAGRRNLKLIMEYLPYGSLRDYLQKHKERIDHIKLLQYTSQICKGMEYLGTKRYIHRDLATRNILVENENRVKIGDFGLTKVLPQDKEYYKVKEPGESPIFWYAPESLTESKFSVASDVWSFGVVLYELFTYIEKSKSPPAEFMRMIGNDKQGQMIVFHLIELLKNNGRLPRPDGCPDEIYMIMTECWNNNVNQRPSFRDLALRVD
measurementProtocol: JAK kinase assay (HTRF, phosphorylation of synthetic peptide), JAK2
experimentalConditions: catalytic domain, ATP at Km (4 μM); read-out: JAK2 kinase inhibitory activity (EC50)

The following compounds have reported results that may help.
CN(CC1CCN(S(C)(=O)=O)C1)S(=O)(=O)N1CCN(c2ncnc3[nH]ccc23)CC12CC2 (stereo not shown) [Example 119]
< 100 nM
CN(CCOc1cccc(C#N)c1)S(=O)(=O)N1CCN(c2ncnc3[nH]ccc23)CC12CC2 [Example 71]
< 100 nM

// CN(C1CCCC1)S(=O)(=O)N1CCN(c2ncnc3[nH]ccc23)CC12CC2 [Example 61] : EC50 value = < 100 nM

GET /value?item= CN(CCC1CCS(=O)(=O)C1)S(=O)(=O)N1CCN(c2ncnc3[nH]ccc23)CC12CC2 (stereo not shown) [Example 75] &field=EC50 returns < 100 nM

----------
studyTarget: JAK1 (Homo sapiens, UniProt P23458)
Construct: JAK1 (aa 850-1154) and TYK2 (aa 871-1187) are expressed with an N-terminally fused GST-tag; GST (N)
Sequence (P23458 850-1154): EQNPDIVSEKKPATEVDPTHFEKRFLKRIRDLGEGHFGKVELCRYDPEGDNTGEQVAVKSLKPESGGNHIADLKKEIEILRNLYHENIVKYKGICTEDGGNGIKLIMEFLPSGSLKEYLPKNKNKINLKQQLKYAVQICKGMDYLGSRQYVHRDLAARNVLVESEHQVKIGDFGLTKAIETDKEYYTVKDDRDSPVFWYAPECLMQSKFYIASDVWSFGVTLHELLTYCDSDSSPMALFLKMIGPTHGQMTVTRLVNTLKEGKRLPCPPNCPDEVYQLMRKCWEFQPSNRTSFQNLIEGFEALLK
measurementProtocol: JAK kinase assay (HTRF, phosphorylation of synthetic peptide), JAK1
experimentalConditions: catalytic domain, ATP at Km (7 μM); read-out: JAK1 kinase inhibitory activity (EC50)
parameter: EC50

Recorded results for 3 compounds are shown here.
CN(CCCc1cccc(C#N)c1)S(=O)(=O)N1CCN(c2ncnc3[nH]ccc23)CC12CC2
< 100 nM
O=S(=O)(N(CCc1ccccc1)CCc1ccc(F)cc1)N1CCN(c2ncnc3[nH]ccc23)CC12CC2
100 to 500 nM
CN(C[C@@H]1CC(F)(F)CN1S(=O)(=O)CCCC#N)S(=O)(=O)N1CCN(c2ncnc3[nH]ccc23)CC12CC2
< 100 nM

Shifting focus to the compound that follows.
Reported EC50 for O=S(=O)(N(CCOc1ccccc1)C1COC1)N1CCN(c2ncnc3[nH]ccc23)CC12CC2 was < 100 nM

----------
Measured EC50 by item
studyTarget: TYK2 (Homo sapiens)
Construct: JAK1 (aa 850-1154) and TYK2 (aa 871-1187) are expressed with an N-terminally fused GST-tag; GST (N)
measurementProtocol: JAK kinase assay (HTRF, phosphorylation of synthetic peptide), TYK2
experimentalConditions: catalytic domain, ATP at Km (13 μM); read-out: TYK2 kinase inhibitory activity (EC50)

Example cases with answers are listed next.
CN(C(=O)CCC1CCCC1)S(=O)(=O)N1CCN(c2ncnc3[nH]ccc23)CC12CC2 [Example 134]
> 500 nM
CN(CCc1ccccc1)S(=O)(=O)N1CCN(c2ncnc3[nH]ccc23)CC12CC2 [Example 58]
100 to 500 nM
CN(C[C@H]1CCCN1C(=O)CC#N)S(=O)(=O)N1CCN(c2ncnc3[nH]ccc23)CC12CC2 [Example 189]
100 to 500 nM
CN(CCc1cccc(F)c1)S(=O)(=O)N1CCN(c2ncnc3[nH]ccc23)CC12CC2 [Example 17]
< 100 nM
N#CCN(CC#N)S(=O)(=O)N1CCN(c2ncnc3[nH]ccc23)CC12CC2 [Example 145]
100 to 500 nM
CN(CCOc1ccccc1C#N)S(=O)(=O)N1CCN(c2ncnc3[nH]ccc23)CC12CC2 [Example 70]
> 500 nM
CN(C1CN(C(=O)CCO)C1)S(=O)(=O)N1CCN(c2ncnc3[nH]ccc23)CC12CC2 [Example 179]
100 to 500 nM

Looking up CN(Cc1ccc(OC(F)(F)F)cc1)S(=O)(=O)N1CCN(c2ncnc3[nH]ccc23)CC12CC2 [Example 80] , I found its EC50 recorded as > 500 nM

----------
studyTarget: TYK2 (Homo sapiens)
Construct: JAK1 (aa 850-1154) and TYK2 (aa 871-1187) are expressed with an N-terminally fused GST-tag; GST (N); purchased Carna Biosciences, Inc; host or cells: baculovirus expression system
measurementProtocol: JAK kinase assay (HTRF, phosphorylation of synthetic peptide), TYK2
Format: biochemical
experimentalConditions: catalytic domain, ATP at Km (13 μM); read-out: TYK2 kinase inhibitory activity (EC50)
pEC50: −log10 of the molar value.
parameter: pEC50

As a guide, the following entries are already answered.
O=S(=O)(N(CCO)C1COC1)N1CCN(c2ncnc3[nH]ccc23)CC12CC2
< 6.30
Cc1cc(CN(C)S(=O)(=O)N2CCN(c3ncnc4[nH]ccc34)CC23CC3)on1
6.30 to 7.00
CN(CC1CCCC1)S(=O)(=O)N1CCN(c2ncnc3[nH]ccc23)CC12CC2
> 7.00

pEC50 measured on CN(CCOc1cccc(C#N)c1)S(=O)(=O)N1CCN(c2ncnc3[nH]ccc23)CC12CC2 = < 6.30

Data point: CN(CCC1CC1)S(=O)(=O)N1CCN(c2ncnc3[nH]ccc23)CC12CC2 ; pEC50 = > 7.00

The recorded pEC50 for entry CN(C(=O)C1CCS(=O)(=O)C1)S(=O)(=O)N1CCN(c2ncnc3[nH]ccc23)CC12CC2 (stereo not shown) equals 6.30 to 7.00

get_value(item= O=S(=O)(N(CCN1CCOCC1)C1CCC1)N1CCN(c2ncnc3[nH]ccc23)CC12CC2 , readout=pEC50) returns < 6.30

For CN(CCO)S(=O)(=O)N1CCN(c2ncnc3[nH]ccc23)CC12CC2 the compound record lists pEC50 as 6.30 to 7.00

Consider CN(C(=O)CC1CCCC1)S(=O)(=O)N1CCN(c2ncnc3[nH]ccc23)CC12CC2 . Its measured pEC50 is 6.30 to 7.00

Query N#CCCN(CC1CCCO1)S(=O)(=O)N1CCN(c2ncnc3[nH]ccc23)CC12CC2 (stereo not shown) yields pEC50 of 6.30 to 7.00

Measured pEC50 of CCC(=O)CN(CCc1ccccc1)S(=O)(=O)N1CCN(c2ncnc3[nH]ccc23)CC12CC2 : < 6.30

# pEC50 of CN(C(=O)CCC(F)(F)F)S(=O)(=O)N1CCN(c2ncnc3[nH]ccc23)CC12CC2 = > 7.00

Recorded pEC50 (compound CN(Cc1ccc(S(C)(=O)=O)cc1)S(=O)(=O)N1CCN(c2ncnc3[nH]ccc23)CC12CC2 ): > 7.00

Kindly note the recorded pEC50 for CN(Cc1ccc(C(F)(F)F)cc1)S(=O)(=O)N1CCN(c2ncnc3[nH]ccc23)CC12CC2 , which is < 6.30

GET /value?item= O=S(=O)(N(CCCc1ccccc1)CCc1ccccc1)N1CCN(c2ncnc3[nH]ccc23)CC12CC2 &field=pEC50 returns < 6.30

get_value(item= O=S(=O)(N(CCO)CCc1ccccc1)N1CCN(c2ncnc3[nH]ccc23)CC12CC2 , readout=pEC50) returns > 7.00

----------
studyTarget: TYK2 (Homo sapiens)
Construct: JAK1 (aa 850-1154) and TYK2 (aa 871-1187) are expressed with an N-terminally fused GST-tag; GST (N)
Sequence (P29597 871-1187): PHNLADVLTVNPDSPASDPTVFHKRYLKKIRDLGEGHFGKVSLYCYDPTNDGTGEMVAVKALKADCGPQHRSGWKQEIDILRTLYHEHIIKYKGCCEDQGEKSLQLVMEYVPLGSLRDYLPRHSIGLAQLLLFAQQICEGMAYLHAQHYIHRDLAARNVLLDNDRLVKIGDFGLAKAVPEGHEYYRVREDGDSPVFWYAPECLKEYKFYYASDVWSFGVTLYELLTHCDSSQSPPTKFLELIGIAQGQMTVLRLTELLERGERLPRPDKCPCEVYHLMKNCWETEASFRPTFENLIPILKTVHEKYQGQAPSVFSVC
measurementProtocol: JAK kinase assay (HTRF, phosphorylation of synthetic peptide), TYK2
experimentalConditions: catalytic domain, ATP at Km (13 μM); read-out: TYK2 kinase inhibitory activity (EC50)
parameter: EC50

Item: CC(C)CN(CCc1ccccc1)S(=O)(=O)N1CCN(c2ncnc3[nH]ccc23)CC12CC2 | EC50: > 500 nM

Record CN(C[C@@H]1CCCN1C(=O)CO)S(=O)(=O)N1CCN(c2ncnc3[nH]ccc23)CC12CC2 . Reported EC50: < 100 nM

Looking up CN(CCC1CCCCC1)S(=O)(=O)N1CCN(c2ncnc3[nH]ccc23)CC12CC2 , I found its EC50 recorded as > 500 nM

Lookup result for CN(CC1CC1)S(=O)(=O)N1CCN(c2ncnc3[nH]ccc23)CC12CC2 ; measured EC50: < 100 nM

Lab book: EC50 of CN(CC1CC(F)(F)CN1)S(=O)(=O)N1CCN(c2ncnc3[nH]ccc23)CC12CC2 (centres unmarked) noted as < 100 nM

So for CN(CC1CCN(S(C)(=O)=O)CC1)S(=O)(=O)N1CCN(c2ncnc3[nH]ccc23)CC12CC2 , the logged EC50 turned out to be 100 to 500 nM

Form: compound = CN(CC1CCS(=O)(=O)CC1)S(=O)(=O)N1CCN(c2ncnc3[nH]ccc23)CC12CC2 ; EC50 = < 100 nM

Lab note: measured EC50 of CN(CCc1ccc(F)cc1)S(=O)(=O)N1CCN(c2ncnc3[nH]ccc23)CC12CC2 was 100 to 500 nM
